Measured TGI by item
- Tested on: HOP-92 NSCLC
- Test method notes: NCI tumour cell line growth inhibition, 48 h
Reported endpoint: TGI

INSERT INTO measurements (compound, reported_endpoint, experimental_value) VALUES
  ('CCOC(=O)C(N)CSC(=O)NC (stereo unspecified)', 'TGI', '341 µM'),
  ('O=c1[nH]cc(COCC(F)(F)C(F)(F)C(F)(F)C(F)F)c(=O)[nH]1', 'TGI', '> 100 µM'),
  ('COc1ccc2c(c1)CN1C(=N2)CSC1c1cc([N+](=O)[O-])ccc1Cl (stereo unspecified)', 'TGI', '> 100 µM'),
  ('Clc1ccc(-c2c(C3=NCCN3)nnn2-c2ccc(Cl)cc2)cc1', 'TGI', '50.2 µM'),
  ('O=C(O)c1nc(-c2ccccn2)c(-c2ccccn2)nc1C(=O)O', 'TGI', '26.9 µM'),
  ('O=C(/C=C/c1ccccc1)/C=C/c1ccccc1', 'TGI', '88.6 µM'),
  ('O=C(CN(C1CCCCC1)C1CCCCC1)Nc1ccc(S(=O)(=O)c2ccc(NC(=O)CN(C3CCCCC3)C3CCCCC3)cc2)cc1', 'TGI', '2.93 µM'),
  ('CN(C)C(=O)NCCN1CCCCCc2ccccc21', 'TGI', '> 100 µM'),
  ('Cc1cc(C)n(CCNCCn2nc(C)cc2C)n1', 'TGI', '> 100 µM'),
  ('O=C(CN1CCCCC1)N1CCc2c([nH]c3ccccc23)C1c1cccnc1 (stereo unspecified)', 'TGI', '> 100 µM'),
  ('C#CCn1ncc2c(SCc3ccccc3)ncnc21', 'TGI', '> 100 µM');

---

- System: LOX IMVI melanoma
- Test method notes: NCI tumour cell line growth inhibition, 48 h
Measured TGI by item
Reported endpoint: TGI

INSERT INTO results (compound, experimental_value) VALUES
  ('Cc1cn2c(=O)c3ccccc3nc2s1', '> 100 µM'),
  ('Cc1sc2nc(NCCc3c[nH]c4ccc(Cl)cc34)[nH]c(=O)c2c1C', '3.68 µM'),
  ('CCOC(=O)[C@H](CCCNC(=O)OC(C)(C)C)NCc1ccc(OC)c(OC)c1', '> 100 µM'),
  ('Cc1cc(C)n(CCNCCn2nc(C)cc2C)n1', '> 100 µM'),
  ('O=C(N/N=C\c1cc(Br)ccc1O)c1ccncc1', '94.7 µM'),
  ('N#CC1Nc2ccccc2[C@@H](O)C1O (stereo partly specified)', '> 100 µM');

---

- Test system: HS 578T breast
- Test method notes: NCI tumour cell line growth inhibition, 48 h
Measured TGI by item
Reported endpoint: TGI

INSERT INTO assay_data (compound, experimental_value) VALUES
  ('CC(C)=CCS(=O)c1ccccc1NC1=CC(=O)CC(C)(C)C1 (configuration not stated)', '> 100 µM'),
  ('Cc1cc(C)cc(C(=N)c2ccccc2Cc2cccc3ccccc23)c1', '21.7 µM'),
  ('C#CCn1ncc2c(SCc3ccccc3)ncnc21', '> 100 µM'),
  ('COc1ccc(CNc2c3ccccc3nc3ccccc23)cc1OC', '10.1 µM'),
  ('COC1=C(Br)[C@H](O)[C@@]2(C=C1Br)CC(C(=O)NCCCCCN=C(N)N)=NO2', '> 10 µM'),
  ('Clc1ccc(Cl)c(Nc2ccnc(SCc3ccccc3)n2)c1', '> 100 µM'),
  ('CCN(CC)CCNCC(=O)Oc1ccc(/C=C/C(=O)CC(=O)/C=C/c2ccc(OC(=O)CNCCN(CC)CC)c(OC)c2)cc1OC', '26.4 µM'),
  ('CN1CCc2c(Sc3ccc(C(=O)NO)cc3)c3ccccc3n2C1', '27 µM'),
  ('CN(Nc1cc(=O)[nH]c(=O)[nH]1)c1ccccc1', '> 100 µM'),
  ('COc1ccc2c(c1C)C(=O)C(O)(CC=C(C)C)O2 (configuration not stated)', '> 100 µM'),
  ('Cc1[nH]n(-c2cccc(Cl)c2)c(=O)c1/C=C1\C=Nc2ccc(Br)cc21', '8.04 µM'),
  ('CCOC(=O)N1CCN(C(=O)c2ccc(C(F)(F)F)nc2Nc2cc(Cl)ccc2C)CC1', '91.2 µM'),
  ('CN(C)C1=Nc2ccccc2C(=S)N2CSCC12 (configuration not stated)', '> 100 µM'),
  ('CCOC(=O)C1=C(Nc2cccc(OC)c2)OCC1=O', '> 100 µM'),
  ('CC1=NC(=Cc2ccc(O)cc2)C(=O)N1n1c(-c2ccccc2)nc2ccccc2c1=O', '> 100 µM'),
  ('O=C(O)c1ccccc1-c1ccccc1C(=O)Nc1ccc2c(c1)Cc1cc(F)ccc1-2', '> 100 µM'),
  ('O=C(Nc1cccc(Cl)c1Cl)c1cccc(NC2=C(Cl)C(=O)N(Cc3ccccc3)C2=O)c1', '> 100 µM'),
  ('O=C(c1ccccc1)c1c(-c2ccccc2)[nH]n(-c2ccc([N+](=O)[O-])cc2)c(=O)c1=O', '> 100 µM'),
  ('C/C(=N\Nc1cc(CN2CCCC2)c(-c2ccc(Cl)cc2)nn1)C(=O)O', '> 100 µM'),
  ('Cc1cn2c(/C=C3/C(=O)Nc4ccccc43)c(-c3ccc(Cl)cc3)nc2s1', '31.9 µM'),
  ('CCCCCc1c(C)[nH]c(/C=C2\N=C(c3ccc[nH]3)C=C2CC)c1C', '0.129 µM'),
  ('CCOC(=O)c1nc2c(Cl)c3ncccc3cc2[nH]c1=O', '> 100 µM');
